# Tested on: ras-transformed human bronchial epithelial cells (TBE)
# experiment.summary: Selective cytotoxicity microculture assay, ras-transformed bronchial epithelial cells
# Assay type: cell-based
# measurement.context: Homo sapiens, Epithelial cell, read-out: GI50
Entries whose GI50 is below 20 µg/mL take True; entries at or above 20 µg/mL take False.

>>> class_name("c1c[se]c(-c2ccc(-c3ccc[se]3)s2)c1 [compound 676628]")
"False"
>>> class_name("c1csc(-c2ccc(-c3cccs3)[se]2)c1 [compound 675347]")
"True"
>>> class_name("OCc1ccc(-c2ccc(-c3ccc[se]3)[se]2)[se]1 [compound 675246]")
"True"

API: query returns whether the compound falls strictly under 20 µg/mL in GI50. Query: c1c[se]c(-c2ccc(-c3ccc[se]3)[nH]2)c1 [compound 676633]
True

One more compound: OCc1ccc(-c2ccc(-c3ccc(CO)[se]3)[se]2)[se]1 [compound 675247]
False

Repeat for the following compound: c1c[se]c(-c2ccc(-c3ccc[se]3)[se]2)c1 [compound 674973]
True

* * *

# Test system: NCI-H23
# experiment.summary: NCI human tumor cell panel: NCI-H23 (Non-Small Cell Lung Cancer)
# Format: cell-based
# measurement.context: NCI-H23, read-out: Log10 GI50 (converted)
quantity: GI50

Some solved entries appear below for comparison.
>>> reading("OCc1ccc(-c2ccc(-c3ccc[se]3)[se]2)[se]1 [compound 675246]")
"13.2 µM"
>>> reading("O=Cc1ccc(-c2ccc(-c3ccc(C=O)[se]3)s2)s1 [compound 688829]")
"> 100 µM"
>>> reading("OCc1ccc(-c2ccc(-c3ccc[se]3)s2)[se]1 [compound 676631]")
"16.6 µM"
>>> reading("OCc1ccc(-c2ccc(-c3ccc(CO)[se]3)[se]2)[se]1 [compound 675247]")
"6.61 µM"
>>> reading("OCc1ccc(-c2ccc(-c3ccc(CO)s3)[se]2)s1 [compound 675343]")
"> 100 µM"

Here are 2 compounds. What values of GI50 were reported for them?
1. OCc1ccc(-c2ccc(-c3ccc(CO)[se]3)s2)[se]1 [compound 676632]
2. OCc1ccc(-c2ccc(-c3ccc(CO)[se]3)s2)s1 [compound 688830]

1. > 100 µM
2. 85.1 µM

* * *

# Test system: T-47D
# experiment.summary: NCI human tumor cell panel: T-47D (Breast Cancer)
# Assay type: cell-based
# measurement.context: T47D, Breast Cancer, read-out: Log10 TGI (converted)
quantity: IC (TGI)

Examples from the recorded data:
>>> reading("O=Cc1ccc(-c2ccc(-c3ccc[se]3)[se]2)[se]1 [NSC 675244]")
"23.4 µM"
>>> reading("O=Cc1ccc(-c2ccc(-c3ccc(C=O)[se]3)[se]2)[se]1 [NSC 675245]")
"> 100 µM"
>>> reading("O=Cc1ccc(-c2ccc(-c3cccs3)[se]2)s1 [NSC 675346]")
"40.7 µM"

# map each compound to its IC (TGI)
1. OCc1ccc(-c2ccc(-c3cccs3)[se]2)s1 [NSC 675344]
2. O=Cc1ccc(-c2ccc(-c3ccc(C=O)s3)[se]2)s1 [NSC 675345]
3. O=Cc1ccc(-c2ccc(-c3ccc(C=O)[se]3)s2)[se]1 [NSC 676630]

> 100 µM
> 100 µM
> 100 µM

* * *

Assignment: determine reported IC (TGI) for the given compounds.
# Tested on: A549/ATCC
# experiment.summary: NCI human tumor cell panel: A549/ATCC (Non-Small Cell Lung Cancer)
# Format: cell-based
# measurement.context: read-out: Log10 TGI (converted)

>>> reading("OCc1ccc(-c2ccc(-c3ccc(CO)[se]3)[se]2)[se]1")
"19.5 µM"
>>> reading("O=Cc1ccc(-c2ccc(-c3ccc(C=O)[se]3)s2)s1")
"> 100 µM"
>>> reading("OCc1ccc(-c2ccc(-c3ccc(CO)[se]3)s2)[se]1")
"> 100 µM"
>>> reading("OCc1ccc(-c2ccc(-c3ccc[se]3)[se]2)[se]1")
"22.4 µM"
>>> reading("OCc1ccc(-c2ccc(-c3ccc(CO)s3)[se]2)s1")
"> 100 µM"
>>> reading("OCc1ccc(-c2ccc(-c3ccc[se]3)s2)[se]1")
"> 100 µM"

Consider the additional compound presented here.
What IC (TGI) value was documented for this compound, "OCc1ccc(-c2ccc(-c3ccc(CO)[se]3)s2)s1" ?
33.1 µM

* * *

# Tested on: MCF7/ADR-RES
# experiment.summary: NCI human tumor cell panel: MCF7/ADR-RES (Breast Cancer)
# Assay type: cell-based
# measurement.context: read-out: Log10 GI50 (converted)
Please respond with t when measured GI50 is strictly beneath 5 µM, and with f in all other cases.

Past entries and their recorded results:
>>> class_name("OCc1ccc(-c2ccc(-c3ccc(CO)[se]3)s2)[se]1")
"f"
>>> class_name("OCc1ccc(-c2ccc(-c3ccc(CO)[se]3)s2)s1")
"f"
>>> class_name("OCc1ccc(-c2ccc(-c3ccc(CO)s3)[se]2)s1")
"f"
>>> class_name("OCc1ccc(-c2ccc(-c3ccc[se]3)s2)[se]1")
"f"
>>> class_name("O=Cc1ccc(-c2ccc(-c3ccc(C=O)[se]3)s2)s1")
"f"

is_below(GI50, 5 µM) for "OCc1ccc(-c2ccc(-c3ccc(CO)[se]3)[se]2)[se]1" ?
t

* * *

# Tested on: A549/ATCC
# experiment.summary: NCI human tumor cell panel: A549/ATCC (Non-Small Cell Lung Cancer)
# Type: cell-based
# measurement.context: Non-Small Cell Lung Cancer, read-out: Log10 TGI (converted)
Assign IC (TGI) to each entry below.

>>> reading("O=Cc1ccc(-c2ccc(-c3ccc(C=O)[se]3)s2)[se]1")
"> 100 µM"
>>> reading("OCc1ccc(-c2ccc(-c3cccs3)[se]2)s1")
"> 100 µM"
>>> reading("O=Cc1ccc(-c2ccc(-c3cccs3)[se]2)s1")
"> 100 µM"
>>> reading("O=Cc1ccc(-c2ccc(-c3ccc(C=O)[se]3)[se]2)[se]1")
"> 100 µM"
>>> reading("O=Cc1ccc(-c2ccc(-c3ccc(C=O)s3)[se]2)s1")
"> 100 µM"

Continue with the next compound.
GET /values?readout=IC (TGI)&item= "O=Cc1ccc(-c2ccc(-c3ccc[se]3)[se]2)[se]1"
26.3 µM

* * *

# Test system: normal human renal cells (RPTEC)
# experiment.summary: Selective cytotoxicity microculture assay, normal human renal cells
# Type: cell-based
# measurement.context: Homo sapiens, RPTEC, read-out: GI50
quantity: GI50 (µg/mL)
Give bare numbers, in µg/mL.

Some solved cases for reference:
>>> reading("c1c[se]c(-c2ccc(-c3ccc[se]3)[se]2)c1")
4
>>> reading("OCc1ccc(-c2ccc(-c3ccc[se]3)[nH]2)[se]1")
2
>>> reading("c1csc(-c2ccc(-c3cccs3)[se]2)c1")
20
>>> reading("c1c[se]c(-c2ccc(-c3ccc[se]3)s2)c1")
400

Here is another compound to look at.
Bench note: what GI50 did "c1c[se]c(-c2ccc(-c3ccc[se]3)[nH]2)c1" show?
20

* * *

Could you please report measured IC (TGI) for the items listed next?
# Test system: MDA-MB-231/ATCC
# experiment.summary: NCI human tumor cell panel: MDA-MB-231/ATCC (Breast Cancer)
# Assay type: cell-based
# measurement.context: Homo sapiens, MDA-MB-231, MDA-MB-231/ATCC; read-out: Log10 TGI (converted)
Give bare numbers, in µM.

Example entries and their recorded answers appear below.
>>> reading("O=Cc1ccc(-c2ccc(-c3ccc(C=O)[se]3)s2)s1")
67.6
>>> reading("OCc1ccc(-c2ccc(-c3ccc(CO)[se]3)s2)s1")
35.5
>>> reading("OCc1ccc(-c2ccc(-c3ccc[se]3)[se]2)[se]1")
33.9

Next item in the queue.
# query: IC (TGI) of entry "OCc1ccc(-c2ccc(-c3ccc[se]3)s2)[se]1"
87.1

* * *

# Tested on: UACC-257
# experiment.summary: NCI human tumor cell panel: UACC-257 (Melanoma)
# Format: cell-based
# measurement.context: UACC-257, Melanoma, read-out: Log10 TGI (converted)
What IC (TGI) was measured for each of the following?
Numbers only, in nM.

Reference set, count: 2
>>> reading("O=Cc1ccc(-c2ccc(-c3ccc(C=O)[se]3)[se]2)[se]1")
912
>>> reading("O=Cc1ccc(-c2ccc(-c3ccc(C=O)[se]3)s2)[se]1")
676

Parameter requested: IC (TGI). Apply to each item below.
1. OCc1ccc(-c2ccc(-c3cccs3)[se]2)s1
2. O=Cc1ccc(-c2ccc(-c3cccs3)[se]2)s1
3. O=Cc1ccc(-c2ccc(-c3ccc[se]3)[se]2)[se]1

[18.6, 83.2, 851]

* * *

Record form. Attribute: IC (TGI). Fill in for each entry.
# System: HOP-92
# experiment.summary: NCI human tumor cell panel: HOP-92 (Non-Small Cell Lung Cancer)
# measurement.context: HOP-92, read-out: Log10 TGI
Answers are plain numbers, in µM.

>>> reading("O=Cc1ccc(-c2ccc(-c3cccs3)[se]2)s1 [NSC 675346]")
70.8
>>> reading("OCc1ccc(-c2ccc(-c3ccc(CO)[se]3)[se]2)[se]1 [compound 675247]")
7.59
>>> reading("OCc1ccc(-c2ccc(-c3ccc[se]3)[se]2)[se]1 [compound 675246]")
11.2

Moving on to the next molecule.
# input molecule: O=Cc1ccc(-c2ccc(-c3ccc[se]3)[se]2)[se]1 [NSC 675244] ; wanted: its IC (TGI)
25.7
